Catalogue of molecules with associated zone of inhibition at 5000 µg/mL
Tested on: Pseudomonas aeruginosa
Experiment: Antibacterial activity against Pseudomonas aeruginosa NCIB 9016 at 5 mg/ml by agar disk diffusion assay
Type: functional
Details: Pseudomonas aeruginosa, NCIB 9016; read-out: DIZ
Recorded endpoint: zone of inhibition at 5000 µg/mL (mm)

[[record]]
molecule = "N=C1C(=S)N(c2ccc(Br)cc2)C(=S)N1c1ccc(Br)cc1"
val = 21

[[record]]
molecule = "N=C1C(=S)N(c2ccc(Cl)cc2)C(=O)N1c1cccc2ccccc12"
val = 18

[[record]]
molecule = "N=C1C(=S)N(c2ccc(Cl)c(Cl)c2)C(=O)N1c1ccc(Oc2ccc(N3C(=N)C(=S)N(c4ccc(Cl)c(Cl)c4)C3=O)cc2)cc1"
val = 20

[[record]]
molecule = "O=C1N(c2ccc(Cl)cc2)CC(=S)N1c1ccc(Cl)c(Cl)c1"
val = 37

[[record]]
molecule = "N=C1C(=S)N(c2ccc(I)cc2)C(=S)N1c1ccc(I)cc1"
val = 20

[[record]]
molecule = "N#CC(=S)Nc1ccc(Cl)c(Cl)c1"
val = 19

[[record]]
molecule = "N=C1C(=S)N(c2ccc(Cl)c(Cl)c2)C(=O)N1c1ccc(Cl)cc1"
val = 18

[[record]]
molecule = "CCOc1ccc(N2C(=O)N(c3c(CC)cc(Cc4cc(CC)c(N5C(=N)C(=S)N(c6ccc(OCC)cc6)C5=O)c(CC)c4)cc3CC)C(=N)C2=S)cc1"
val = 15

[[record]]
molecule = "CC1OC(=N)C(=S)N1c1ccc(Cl)c(Cl)c1 (centres undefined)"
val = 41

